Tested on: SETFA: giant foxtail (Setaria faberi)
Experiment: Post-Emergent Test II herbicidal activity
Format: in vivo
Settings: post-emergence, 336 h, 35 g ai/ha, 14 days, read-out: Visual Growth Reduction (%) 14 Days After Application SETFA
From the text: Post-Emergent Test II: Seeds or nutlets of the desired test plant species were planted in Sun Gro Metro-Mix® 360 planting mixture, which typically has a pH of 6.0 to 6.8 and an organic matter content of about 30 percent, in plastic pots with a surface area of 64 square centimeters. When required to ensure good germination and healthy plants, a fungicide treatment and/or other chemical or physical treatment was applied. […]
Listed below: pest or weed control at 35 g/ha values for each entry.
PROPERTY MEASURED: pest or weed control at 35 g/ha

>>> val("COC(=O)c1nc(-c2ccc3nonc3c2OC)cc(N)c1Cl")
"0 to 29%"
>>> val("Nc1c(F)c(-c2ccc3nsnc3c2)nc(C(=O)O)c1Cl")
"0 to 29%"
>>> val("COC(=O)c1nc(-c2cc3nsnc3cc2F)cc(N)c1Cl")
"60 to 74%"
